TEST_DESCRIPTION: qHTS assay to identify small molecule antagonists of the retinoid acid receptor (RAR) signaling pathway - cell viability counter screen (AID 1159551); also: nearly all actives have a fitted effect of over 35% in size
CONDITION_DETAILS: C3RL4 cells viability, ATP luminescence (CellTiter-Glo), 6 h; series mostly up to 92.4 µM
Results filed as inconclusive are left out. Calls of active or inactive are those of the source. Calls follow the shape of the dose curve; as a rule, active = well fitted cell-killing curve with a large enough effect in the repeat runs; inconclusive = weak or mixed curves, or effect the other way; inactive = flat fitted curve, though single readings scatter.
Give one outcome, nothing more. List: active, inactive

Outcome? "CCCC(=O)c1ccccc1"
inactive

Outcome? "c1ccc2n[nH]nc2c1"
inactive

Outcome? CCN1CCCC1CNC(=O)c1cc(S(=O)(=O)CC)c(N)cc1OC (stereo not drawn)
inactive

Outcome? "OCC(CO)N[C@H]1C[C@](O)(CO)[C@@H](O)[C@H](O)[C@H]1O"
inactive

Outcome? "CC(C)(O)CCC(C)(C)O"
inactive

Outcome? CNC1(C)C2CCC(C2)C1(C)C (stereo not drawn)
inactive

Outcome? "CCc1cc(C(C)(C)C)c(O)c(C(C)(C)C)c1"
inactive

Outcome? "O=Cc1ccc(Cl)cc1"
inactive

Outcome? "COc1cc(C(=S)N2CCOCC2)ccc1O"
inactive

Outcome? "Cc1scc2c1N(C(=O)CN1CCN(C)CC1)c1ccccc1NC2=O"
inactive

Outcome? "COc1nc(C)nc(Cl)c1NC1=NCCN1"
inactive

Outcome? "CCn1c2ccccc2c2cc(N)ccc21"
inactive

Outcome? "CCN(CC)C(=S)SSC(=S)N(CC)CC"
inactive

Outcome? "CC(N)=O"
inactive

Outcome? "Nc1nc2ccccc2[nH]1"
inactive

Outcome? "CCC(C)(C)C(=O)O[C@H]1C[C@@H](C)C=C2C=C[C@H](C)[C@H](CC[C@@H]3C[C@@H](O)CC(=O)O3)[C@H]21"
inactive

Outcome? "CC1=C(C=O)C(C)(C)CC=C1"
inactive

Outcome? "NNCCc1ccccc1"
inactive

Outcome? "O=C(O)c1cccc(C(=O)O)c1"
inactive

Outcome? "O=C(O)c1cc(Cl)cc(Cl)c1"
inactive

Outcome? "CC(C)C(=O)c1c(C(C)C)nn2ccccc12"
inactive

Outcome? "Cc1ccnc2c1NC(=O)c1cccnc1N2C1CC1"
inactive

Outcome? "COc1ccc(Cc2cnc(N)nc2N)cc1OC"
inactive

Outcome? "CC(=O)O[C@]1(C(C)=O)CC[C@H]2[C@@H]3C[C@H](C)C4=CC(=O)CC[C@]4(C)[C@H]3CC[C@@]21C"
inactive

Outcome? "OCCN1CCNCC1"
inactive

Outcome? "COc1ccc(CCN2CCC(Nc3nc4ccccc4n3Cc3ccc(F)cc3)CC2)cc1"
active

Outcome? CC1COC(=O)O1 (stereo not drawn)
inactive

Outcome? "CCCOC(=O)c1cc(O)c(O)c(O)c1"
inactive

====

TEST_DESCRIPTION: qHTS assay to identify small molecule agonists of the estrogen related receptor (ERR) signaling pathway from Tox21 library (AID 1224849); also: % is scaled to controls: 0 for no effect and ±100 for the full control effect; nearly all actives have a fitted effect of over 15% in size
CONDITION_DETAILS: ERR reporter cell line, ONE-Glo luciferase, 18 h; at 42.5 µM (top of the series)
OBSERVATION_TYPE: activity change, positive = activation (%)
Lab book: enter the figure in %, no units written.

Look up and state reported activity change, positive = activation for "OCC(CO)N[C@H]1C[C@](O)(CO)[C@@H](O)[C@H](O)[C@H]1O"
2.44

Look up and state reported activity change, positive = activation for "COc1ccc(Cc2cnc(N)nc2N)cc1OC"
4.01

Look up and state reported activity change, positive = activation for "O=S(=O)(O)c1ccc2nc(-c3ccccc3)[nH]c2c1"
2.03

Look up and state reported activity change, positive = activation for "c1cnc2cc3c(cc2n1)C1CNCC3C1"
1.11

Look up and state reported activity change, positive = activation for "CC1=CC(=O)c2ccccc2C1=O"
-26.5

Look up and state reported activity change, positive = activation for "C1COC(NC(C2CC2)C2CC2)=N1"
-1.34

Look up and state reported activity change, positive = activation for "O=C1CC2(CCCC2)CC(=O)N1CCCCN1CCN(c2ncccn2)CC1"
-12.4

Look up and state reported activity change, positive = activation for CCC(C)(Oc1ccc(C2(c3ccc(OC(C)(CC)C(=O)O)cc3)CCCCC2)cc1)C(=O)O (centres undefined)
9.22

Look up and state reported activity change, positive = activation for "Oc1c(Cl)cc(Cl)cc1Sc1cc(Cl)cc(Cl)c1O"
-52.3

====

TEST_DESCRIPTION: qHTS assay to identify small molecule phospholipidosis (PLD) inducers (AID 1259344)
CONDITION_DETAILS: HepG2 phospholipidosis, LipidTOX Red imaging, 24 h; series mostly up to 38.3 µM
Records with an inconclusive call do not appear. Active and inactive are the calls of the source. Calls come from the whole dose curve; as a rule, active = well fitted activation curve with a large enough effect; inconclusive = small, poorly fitted or top-dose-only effect; inactive = flat fitted curve, though single readings scatter. Starred links: 1 amine or outer side, 2 acyl side, 3 side chain; linkers in the order of their positions; H or OH if unused. Positions of bridges follow the written chain, without caps; N, C: chain ends. Non-standard residues stand in square brackets, D forms with d. Residues, ends and D or L forms follow the SMILES beside them. Chains are numbered I, II in the order given. Actinocin(9to1) = Cc1c2oc3c(C)ccc(C(=O)[*:1])c3nc-2c(C(=O)[*:2])c(N)c1=O; NMeV = CN[C@H](C(=O)O)C(C)C; Sar = CNCC(=O)O
Give one outcome, nothing more. List: True for active, False for inactive

Outcome? Cc1c2oc3c(C)ccc(C(=O)N[C@@H]4C(=O)N[C@H](C(C)C)C(=O)N5CCC[C@H]5C(=O)N(C)CC(=O)N(C)[C@@H](C(C)C)C(=O)O[C@@H]4C)c3nc-2c(C(=O)N[C@@H]2C(=O)N[C@H](C(C)C)C(=O)N3CCC[C@H]3C(=O)N(C)CC(=O)N(C)[C@@H](C(C)C)C(=O)O[C@@H]2C)c(N)c1=O (I: T[dV]P[Sar][NMeV] / II: T[dV]P[Sar][NMeV]; ester I:1-I:C, II:1-II:C; linker I:N-II:N via Actinocin(9to1))
False

Outcome? "Cc1c(O)cccc1C(=O)N[C@@H](CSc1ccccc1)[C@H](O)CN1C[C@H]2CCCC[C@H]2C[C@H]1C(=O)NC(C)(C)C"
False

Outcome? "CCCOC(=O)c1cc(O)c(O)c(O)c1"
False

Outcome? "CCOc1ccccc1C(N)=O"
False

Outcome? "CC[C@H]1CN2CCc3cc(OC)c(OC)cc3[C@@H]2C[C@@H]1C[C@H]1NCCc2cc(OC)c(OC)cc21"
False

Outcome? "c1cnc2cc3c(cc2n1)C1CNCC3C1"
False

Outcome? "CN(C)c1ccc2nc3ccc(=[N+](C)C)cc-3sc2c1"
False

Outcome? "O=C(O)CP(=O)(O)O"
False

Outcome? "NCCO"
False

Outcome? CC1COc2c(N3CCN(C)CC3)c(F)cc3c(=O)c(C(=O)O)cn1c23 (stereo not given)
False

Outcome? "CCCCCC(=O)O[C@]1(C(C)=O)CC[C@H]2[C@@H]3CCC4=CC(=O)CC[C@]4(C)[C@H]3CC[C@@]21C"
False

Outcome? "NC12CC3CC(CC(C3)C1)C2"
False

Outcome? COc1ccc(CCN(C)CCCC(C#N)(c2ccc(OC)c(OC)c2)C(C)C)cc1OC (stereo not given)
False

Outcome? CNCCC(Oc1ccc(C(F)(F)F)cc1)c1ccccc1 (stereo not given)
True

Outcome? CCCCC(CC)COC(=O)CC(C(=O)OCC(CC)CCCC)S(=O)(=O)O (stereo not given)
False

Outcome? "NC(N)=NC(=O)Cc1c(Cl)cccc1Cl"
False

Outcome? "Cc1ccnc2c1NC(=O)c1cccnc1N2C1CC1"
False

Outcome? "CCN(CC)C(=S)SSC(=S)N(CC)CC"
False

Outcome? "COc1ccc(Cc2cnc(N)nc2N)cc1OC"
False

Outcome? CCN(CC)C(=O)Nc1ccc(OCC(O)CNC(C)(C)C)c(C(C)=O)c1 (stereo not given)
False

====

TEST_DESCRIPTION: Caspase-3/7 induction in CHO-K1 cells by small molecules, qHTS assay (AID 1346980); also: nearly all actives have a fitted effect of over 15% in size
CONDITION_DETAILS: CHO-K1 caspase-3/7 induction, Caspase-Glo luminescence, 17 h; series mostly up to 92.4 µM
Calls of active or inactive are those of the source. Calls follow the shape of the dose curve; as a rule, active = well fitted activation curve with a large enough effect in the repeat runs; inconclusive = weak or mixed curves; inactive = flat fitted curve, though single readings scatter.
Give one outcome, nothing more. List: 1.0 for active, 0.0 for inactive

Outcome? "CCCCCC(=O)O[C@]1(C(C)=O)CC[C@H]2[C@@H]3CCC4=CC(=O)CC[C@]4(C)[C@H]3CC[C@@]21C"
0.0

Outcome? "Nc1nc2ccccc2[nH]1"
0.0

Outcome? "Nc1nc(=S)c2[nH]cnc2[nH]1"
0.0

Outcome? CC(C(O)c1ccc(O)cc1)N1CCC(Cc2ccccc2)CC1 (stereo unspecified)
0.0

Outcome? "O=C1OC2(c3ccc(O)cc3Oc3cc(O)ccc32)c2ccccc21"
0.0

Outcome? "O=C(OCc1ccccc1)c1ccc(O)cc1"
0.0

Outcome? "NC(=Nc1ccccc1)Nc1ccccc1"
0.0

Outcome? "O=C(Nc1ccccc1SSc1ccccc1NC(=O)c1ccccc1)c1ccccc1"
0.0

Outcome? CC1COC(=O)O1 (stereo unspecified)
0.0

Outcome? CCn1cc(C(=O)O)c(=O)c2cc(F)c(N3CCNC(C)C3)c(F)c21 (stereo unspecified)
0.0

Outcome? "NCCCCCC(=O)O"
0.0

Outcome? "c1cnc2cc3c(cc2n1)C1CNCC3C1"
0.0

Outcome? "NC(N)=Nc1nc(CSCC/C(N)=N/S(N)(=O)=O)cs1"
0.0

Outcome? c1ccc2c(c1)CCCC2C1=NCCN1 (stereo unspecified)
0.0

Outcome? "CCCC(=O)c1ccccc1"
0.0

Outcome? CCCCC/C=C/CC1CC(=O)OC1=O (stereo unspecified)
0.0

Outcome? "CCCCCCCCCCCC[N+](C)(C)C"
0.0

Outcome? "Clc1ccc2c(c1)C(N1CCNCC1)=Nc1ccccc1O2"
0.0

Outcome? "CC(C)(C)NC(=O)[C@@H]1CN(Cc2cccnc2)CCN1C[C@@H](O)C[C@@H](Cc1ccccc1)C(=O)N[C@H]1c2ccccc2C[C@H]1O"
0.0

Outcome? "Cc1ccnc2c1NC(=O)c1cccnc1N2C1CC1"
0.0

Outcome? "CC(=O)C1=C(C)[C@@H]2C[C@@]3(C1)[C@H](C)CC[C@H]3C2(C)C"
0.0

Outcome? "CCn1c2ccccc2c2cc(N)ccc21"
0.0

Outcome? "Cc1ccc(S(=O)(=O)Oc2ccc(N=Nc3ccc(-c4ccc(N=Nc5c(O)ccc6cc(S(=O)(=O)O)cc(S(=O)(=O)O)c56)c(C)c4)cc3C)cc2)cc1"
0.0

Outcome? "CC(=O)Nc1ccc(C(=O)CCl)cc1"
0.0

Outcome? "O=C(O[C@@H]1Cc2c(O)cc(O)cc2O[C@@H]1c1cc(O)c(O)c(O)c1)c1cc(O)c(O)c(O)c1"
0.0

Outcome? c1cc(C(c2ccc(OCC3CO3)cc2)C(c2ccc(OCC3CO3)cc2)c2ccc(OCC3CO3)cc2)ccc1OCC1CO1 (stereo unspecified)
1.0

Outcome? "NCCO"
0.0

Outcome? CCCCC(CC)COC(=O)CC(C(=O)OCC(CC)CCCC)S(=O)(=O)O (stereo unspecified)
0.0

Outcome? "Nc1cc(S(=O)(=O)O)cc2cc(S(=O)(=O)O)cc(O)c12"
0.0

Outcome? "O=C(O)CCc1ccccc1"
0.0

Outcome? CCCCCCC(O)CCCCCCCCCCC(=O)O (stereo unspecified)
0.0
